Ki by entry:
# Assayed System: UniProt:O43613
# Sequence (O43613 whole entry): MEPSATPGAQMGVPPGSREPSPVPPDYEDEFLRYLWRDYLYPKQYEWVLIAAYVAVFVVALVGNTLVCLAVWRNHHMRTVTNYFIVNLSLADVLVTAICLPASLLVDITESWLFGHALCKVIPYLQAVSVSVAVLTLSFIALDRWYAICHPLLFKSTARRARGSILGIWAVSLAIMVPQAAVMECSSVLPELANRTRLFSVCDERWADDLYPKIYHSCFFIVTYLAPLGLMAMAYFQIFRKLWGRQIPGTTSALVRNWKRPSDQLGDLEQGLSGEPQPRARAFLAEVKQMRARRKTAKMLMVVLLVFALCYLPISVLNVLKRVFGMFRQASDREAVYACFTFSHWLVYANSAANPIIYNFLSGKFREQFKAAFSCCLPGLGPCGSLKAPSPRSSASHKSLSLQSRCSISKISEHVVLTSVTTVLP
# Experiment Summary: Human orexin 1 receptor radioligand binding (competitive binding, CHO membranes)
# Conditions Used: human orexin 1 receptor; Table 2, averages from between 2-20 runs; read-out: hOX1 Ki
Quick reminder: number only, in nM, skip the unit.

Use these answered entries as a reference point.
• Cc1noc(-c2cc(F)ccc2C(=O)N2[C@@H]3CC[C@H]2[C@H](Nc2cnc(C(F)(F)F)cn2)C3)n1 [Example 412] = 329
• O=C(c1cccc(F)c1-c1ncccn1)N1[C@@H]2CC[C@H]1[C@H](Nc1ccc(C(F)F)cn1)C2 [Example 389] = 168
• Cc1cccc(C(=O)N2C3CCC2C(Nc2cnc(Br)cn2)C3)c1-c1ncco1 (centres unmarked) [Example 308] = 4
• O=C(c1cccc(F)c1-c1ncccn1)N1[C@@H]2CC[C@H]1[C@H](Nc1ncc(C(F)(F)F)cc1Cl)C2 [Example 384] = 12
• O=C(c1ccc(F)cc1-c1ncccn1)N1[C@@H]2CC[C@H]1[C@H](Nc1ncc(C(F)(F)F)cn1)C2 [Example 414] = 81

# Ki (compound: Cc1cccc(C(=O)N2[C@@H]3CC[C@H]2[C@H](Nc2ccc(C#N)cn2)C3)c1-c1ncco1 [Example 394] ) is 250

# Ki (compound: Cc1cccc(C(=O)N2C3CCC2C(Oc2ccc(C(F)(F)F)cn2)C3)c1-n1nccn1 (racemic) [Example 422] ) is 57

# Ki (compound: O=C(c1cc(F)ccc1-n1nccn1)N1[C@@H]2CC[C@H]1[C@H](Nc1ccc(C(F)(F)F)cn1)C2 [Example 369] ) is 45

----------
# Assayed System: human orexin 2 receptor (Homo sapiens (Human))
# Experiment Summary: Human orexin 2 receptor radioligand binding ([3H]-EMPA competition, HEK293 membranes)
# Conditions Used: Table 2, further testing; averages from 2-20 runs; read-out: hOX2 Ki
Ki by entry:

Use these answered entries as a reference point.
- Cc1ccc(C(=O)N2C3CCC2C(Oc2cnc(C(F)(F)F)cn2)C3)c(-n2nccn2)n1 (racemic) [Example 446]: > 10 µM
- Cc1cnc(-n2nccn2)c(C(=O)N2[C@@H]3CC[C@H]2[C@H](Nc2ncc(C(F)(F)F)cc2F)C3)c1 [Example 453]: > 10 µM

Could you now consider this next molecule?
Record Cc1cnc(-c2ncccn2)c(C(=O)N2[C@@H]3CC[C@H]2[C@H](Nc2ncc(C(F)(F)F)cc2F)C3)c1 [Example 455] ; system human orexin 2 receptor (Homo sapiens (Human)); Ki = > 10 µM

----------
Ki by entry:
# Assayed System: human orexin 2 receptor (Homo sapiens (Human))
# Experiment Summary: Human orexin 2 receptor radioligand binding ([3H]-EMPA competition, HEK293 membranes)
# Conditions Used: human orexin 2 receptor; Table 2, averages from between 2-20 runs; read-out: hOX2 Ki

Use these answered entries as a reference point.
* Cc1cccc(C(=O)N2[C@@H]3CC[C@H]2[C@H](Nc2ncc(Br)cn2)C3)c1-c1ncccn1 [Example 316] | 796 nM
* O=C(c1c(F)cccc1-n1nccn1)N1C2CCC1C(Oc1ccc(C(F)(F)F)nc1)C2 (racemic) [Example 439] | > 10000 nM
* Cc1cccc(C(=O)N2[C@@H]3CC[C@H]2[C@H](Nc2ncc(Br)cn2)C3)c1-n1nccn1 [Example 318] | 768 nM

Could you now consider this next compound?
# Ki (compound: O=C(c1cccc(F)c1-c1ncc(F)cn1)N1[C@@H]2CC[C@H]1[C@H](Nc1ccc(C(F)(F)F)cn1)C2 [Example 375] ) is 2200 nM

----------
# Assayed System: human orexin 2 receptor (Homo sapiens (Human), UniProt O43614)
# Sequence (O43614 whole entry): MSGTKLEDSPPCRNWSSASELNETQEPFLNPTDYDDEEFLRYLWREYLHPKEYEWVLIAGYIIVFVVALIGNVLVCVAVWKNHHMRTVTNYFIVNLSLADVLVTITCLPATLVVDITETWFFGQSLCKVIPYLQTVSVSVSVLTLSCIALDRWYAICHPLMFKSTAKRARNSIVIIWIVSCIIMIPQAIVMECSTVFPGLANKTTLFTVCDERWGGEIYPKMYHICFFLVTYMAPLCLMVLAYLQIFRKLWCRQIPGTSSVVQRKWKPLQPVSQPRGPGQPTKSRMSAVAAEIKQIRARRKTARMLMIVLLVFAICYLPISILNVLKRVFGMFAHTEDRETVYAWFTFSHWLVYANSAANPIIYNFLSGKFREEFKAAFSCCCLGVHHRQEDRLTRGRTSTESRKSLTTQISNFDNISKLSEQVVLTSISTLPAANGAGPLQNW
# Experiment Summary: Human orexin 2 receptor radioligand binding ([3H]-EMPA competition, HEK293 membranes)
# Conditions Used: human orexin 2 receptor; Table 2, averages from between 2-20 runs; read-out: hOX2 Ki
pKi by entry:
By convention, pKi is the negative base-10 log of a molar concentration.

Use these answered entries as a reference point.
• O=C(c1ccccc1-c1ncc(F)cn1)N1[C@@H]2CC[C@H]1[C@H](Nc1cnc(C(F)(F)F)cn1)C2 [Example 397] = 6.01
• O=C(c1ccccc1-c1ncccn1)N1[C@@H]2CC[C@H]1[C@H](Nc1ccc(C(F)(F)F)cn1)C2 [Example 373] = 6.17

Could you now consider this next molecule?
# pKi (molecule: O=C(c1cc(F)ccc1-n1nccn1)N1[C@@H]2CC[C@H]1[C@H](Nc1ccc(C(F)(F)F)cn1)C2 [Example 369] ) is 6.20

----------
pKi by entry:
# Assayed System: UniProtKB O43614
# Experiment Summary: Human orexin 2 receptor radioligand binding ([3H]-EMPA competition, HEK293 membranes)
# Conditions Used: human orexin 2 receptor; Table 2, averages from between 2-20 runs; read-out: hOX2 Ki
By convention, pKi is the negative base-10 log of a molar concentration.

* Cc1cnc(C(=O)N2[C@@H]3CC[C@H]2[C@H](Nc2ccc(C(F)(F)F)cn2)C3)c(-c2ncccn2)c1 | 5.07
* O=C(c1cccc(F)c1-c1ncccn1)N1[C@@H]2CC[C@H]1[C@H](Nc1nc(C(F)(F)F)cs1)C2 | 5.60
* O=C(c1cccc(F)c1-c1ncccn1)N1[C@@H]2CC[C@H]1[C@H](Nc1ncc(C(F)(F)F)cc1Cl)C2 | 6.21

Could you now consider this next compound?
# pKi (compound: O=C(c1ccc(F)cc1-c1ncccn1)N1[C@@H]2CC[C@H]1[C@H](Nc1ncc(C(F)(F)F)cn1)C2 ) is 5.24

----------
pKi by entry:
# Assayed System: UniProt P56718
# Sequence (P56718 whole entry): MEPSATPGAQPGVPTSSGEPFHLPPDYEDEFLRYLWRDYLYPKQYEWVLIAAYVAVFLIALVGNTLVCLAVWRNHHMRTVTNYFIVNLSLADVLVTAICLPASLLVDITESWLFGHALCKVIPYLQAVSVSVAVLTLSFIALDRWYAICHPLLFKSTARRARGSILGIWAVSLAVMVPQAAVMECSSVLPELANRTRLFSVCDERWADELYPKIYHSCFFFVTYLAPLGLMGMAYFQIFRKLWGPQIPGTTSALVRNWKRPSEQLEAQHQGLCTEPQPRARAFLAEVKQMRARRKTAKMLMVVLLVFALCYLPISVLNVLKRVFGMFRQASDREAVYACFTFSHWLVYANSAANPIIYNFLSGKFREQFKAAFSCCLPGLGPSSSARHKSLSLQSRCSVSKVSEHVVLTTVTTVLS
# Experiment Summary: Rat orexin 1 receptor radioligand binding (competitive binding, HEK293 membranes)
# Conditions Used: rat orexin 1 receptor; Table 2, averages from between 2-20 runs; read-out: rOX1 Ki
By convention, pKi is the negative base-10 log of a molar concentration.

* O=C(c1cccc(F)c1-n1nccn1)N1C2CCC1C(Oc1cnc3ccccc3n1)C2 (racemic) | 6.46

# pKi (molecule: O=C(c1ccccc1-c1ncccn1)N1C2CCC1C(Oc1ccc(C(F)(F)F)cn1)C2 (racemic) ) is 6.83

# pKi (molecule: Cc1cccc(C(=O)N2[C@@H]3CC[C@H]2[C@H](Nc2ccc(C#N)cn2)C3)c1-n1nccn1 ) is 6.66

# pKi (molecule: O=C(c1ncccc1-c1ncccn1)N1[C@@H]2CC[C@H]1[C@H](Nc1ncc(C(F)(F)F)cc1Cl)C2 ) is 7.40

# pKi (molecule: N#Cc1ccc(N[C@@H]2C[C@H]3CC[C@@H]2N3C(=O)c2cccc(F)c2-n2nccn2)nc1 ) is 5.82

# pKi (molecule: CN(c1ccc(C(F)(F)F)cn1)[C@@H]1C[C@H]2CC[C@@H]1N2C(=O)c1cccc(F)c1-c1ncccn1 ) is 6.65

# pKi (molecule: O=C(c1cccc(F)c1-c1ncco1)N1[C@@H]2CC[C@H]1[C@H](Nc1ccc(C(F)(F)F)cn1)C2 ) is 7.74

# pKi (molecule: Cc1cccc(C(=O)N2[C@@H]3CC[C@H]2[C@H](Nc2cnc(Br)cn2)C3)c1-c1ncccn1 ) is 8.05

# pKi (molecule: Cc1cnc(-n2nccn2)c(C(=O)N2[C@@H]3CC[C@H]2[C@H](Nc2cnc(C(F)(F)F)cn2)C3)c1 ) is 6.71

# pKi (molecule: Cc1cccc(C(=O)N2[C@@H]3CC[C@H]2[C@H](Nc2ncc(Br)cn2)C3)c1-c1ncccn1 ) is 7.70

# pKi (molecule: Cc1cccc(C(=O)N2[C@@H]3CC[C@H]2[C@H](Nc2ccc(Br)cn2)C3)c1-c1ncccn1 ) is 7.92

# pKi (molecule: O=C(c1cccc(F)c1-n1nccn1)N1[C@@H]2CC[C@H]1[C@H](Nc1ncc(Br)cn1)C2 ) is 7.51

# pKi (molecule: O=C(c1cc(F)ccc1-c1ncccn1)N1[C@@H]2CC[C@H]1[C@H](Nc1ccc(C(F)(F)F)cn1)C2 ) is 7.38

# pKi (molecule: O=C(c1ncccc1-c1ncccn1)N1[C@@H]2CC[C@H]1[C@H](Nc1cnc(C(F)(F)F)cn1)C2 ) is 7.23

# pKi (molecule: O=C(c1c(F)cccc1-n1nccn1)N1C2CCC1C(Oc1ccc(C(F)(F)F)cn1)C2 (racemic) ) is 6.23

# pKi (molecule: Cc1cccc(C(=O)N2[C@@H]3CC[C@H]2[C@H](Nc2ccc(C(F)(F)F)cn2)C3)c1-c1ncccn1 ) is 7.80

# pKi (molecule: O=C(c1cccc(F)c1-n1nccn1)N1C2CCC1C(Oc1ccc(Br)cn1)C2 (racemic) ) is 6.93
